Test system: IFN induction in cGAMP-stimulated THP1 cells
Assay: cGAMP stimulated counter cell assay in THP1-Dual cells (THP1(cGAMP) IC50)
Type: cell-based, human
Details: Table 1; selectivity for cGAS-inhibition
MEASUREMENT_LABEL: Ratio THP(cGAMP) IC50/THP(vir) IC50

In the examples that follow, each entry is paired with its recorded Ratio THP(cGAMP) IC50/THP(vir) IC50.
>  <COMPOUND>
C[C@@H]1CN2CC[C@H]1n1c(nc3ccccc31)O[C@H]1C[C@@H](C(=O)O)N(C1)c1nc(nc3c1oc1ccccc13)CCCCCOC2=O [Example 10.01]

>  <Ratio THP(cGAMP) IC50/THP(vir) IC50>
45

$$$$
>  <COMPOUND>
C[C@H]1CN2CC[C@@H]1n1c(nc3cc(Cl)ccc31)O[C@H]1C[C@@H](C(=O)O)N(C1)c1nc(nc3c1oc1cc(Cl)ccc13)CCOCCCC2=O [Example 1.08]

>  <Ratio THP(cGAMP) IC50/THP(vir) IC50>
3928

$$$$
>  <COMPOUND>
C[C@H]1CN2CC[C@@H]1n1c(nc3ccccc31)O[C@H]1C[C@@H](C(=O)O)N(C1)c1nc(nc3c1oc1ccccc13)CCCCCC2=O [Example 1.19]

>  <Ratio THP(cGAMP) IC50/THP(vir) IC50>
277

$$$$

Kindly consider the entry below.
Ask: Which value of Ratio THP(cGAMP) IC50/THP(vir) IC50 has been reported for O=C(O)[C@@H]1C[C@H]2CN1c1nc(nc3c1oc1ccccc13)COCCCC(F)(F)C(=O)N1CCC(CC1)n1c(nc3ccccc31)O2 [Example 8.01] in the records?
Reply: 255

====

We begin with a simple list: items and their reported Ratio THP(cGAMP) IC50/THP(vir) IC50.
Test system: IFN induction in cGAMP-stimulated THP1 cells
Assay: cGAMP stimulated counter cell assay in THP1-Dual cells (THP1(cGAMP) IC50)
Type: cell-based, human
Conditions: Table 1; selectivity for cGAS-inhibition

In the examples that follow, each entry is paired with its recorded Ratio THP(cGAMP) IC50/THP(vir) IC50.
>  <COMPOUND>
C[C@H]1CN2CC[C@@H]1n1c(nc3ccccc31)O[C@H]1C[C@@H](C(=O)O)N(C1)c1nc(nc3c1oc1ccccc13)C(F)(F)CCCCC(F)(F)C2=O

>  <Ratio THP(cGAMP) IC50/THP(vir) IC50>
519

$$$$
>  <COMPOUND>
O=C(O)[C@@H]1C[C@H]2CN1c1nc(nc3c1oc1ccccc13)CCOCCCC(=O)N1CCC(CC1)n1c(nc3cc(F)ccc31)O2

>  <Ratio THP(cGAMP) IC50/THP(vir) IC50>
>90

$$$$
>  <COMPOUND>
C[C@@H]1CN2CC[C@H]1n1c(nc3cc(Cl)ccc31)O[C@H]1C[C@@H](C(=O)O)N(C1)c1nc(nc3c1oc1ccccc13)CCOCCCC2=O

>  <Ratio THP(cGAMP) IC50/THP(vir) IC50>
>253

$$$$

Ask: Which value of Ratio THP(cGAMP) IC50/THP(vir) IC50 has been reported for O=C(O)[C@@H]1C[C@H]2CN1c1nc(nc3c1oc1ccccc13)OCCCCOC(=O)N1CCC(CC1)n1c(nc3ccccc31)O2 in the records?
Reply: >56

Ask: Which value of Ratio THP(cGAMP) IC50/THP(vir) IC50 has been reported for C[C@H]1CN2CC[C@@H]1n1c(nc3cc(Cl)ccc31)O[C@H]1C[C@@H](C(=O)O)N(C1)c1nc(nc3c1oc1ccccc13)C(F)(F)CCCOCC2=O in the records?
Reply: >5238

Ask: Which value of Ratio THP(cGAMP) IC50/THP(vir) IC50 has been reported for O=C(O)[C@@H]1C[C@H]2CN1c1nc(nc3c1oc1ccccc13)COCCCCCC(=O)N1CCC(CC1)n1c(nc3cccc(F)c31)O2 in the records?
Reply: >260

Ask: Which value of Ratio THP(cGAMP) IC50/THP(vir) IC50 has been reported for C[C@H]1CN2CC[C@@H]1n1c(nc3ccccc31)O[C@H]1C[C@@H](C(=O)O)N(C1)c1nc(nc3c1oc1cc(F)ccc13)C(F)(F)CCCCCC2=O in the records?
Reply: 11920

Ask: Which value of Ratio THP(cGAMP) IC50/THP(vir) IC50 has been reported for C[C@H]1CN2CC[C@@H]1n1c(nc3cccc(Cl)c31)O[C@H]1C[C@@H](C(=O)O)N(C1)c1nc(nc3c1oc1ccccc13)CC(=O)NCCCC2=O (racemic) in the records?
Reply: >948

Ask: Which value of Ratio THP(cGAMP) IC50/THP(vir) IC50 has been reported for C[C@H]1CN2CC[C@@H]1n1c(nc3ccccc31)O[C@H]1C[C@@H](C(=O)O)N(C1)c1nc(nc3c1oc1ccccc13)CCOCCOC2=O (mixture of isomers) in the records?
Reply: >42

Ask: Which value of Ratio THP(cGAMP) IC50/THP(vir) IC50 has been reported for C[C@H]1CN2CC[C@@H]1n1c(nc3cc(Cl)ccc31)O[C@H]1C[C@@H](C(=O)O)N(C1)c1nc(nc3c1oc1ccccc13)C(F)(F)OCCCCC2=O in the records?
Reply: >2225

Ask: Which value of Ratio THP(cGAMP) IC50/THP(vir) IC50 has been reported for C[C@@H]1CCCCC(=O)N2CCC(CC2)n2c(nc3ccccc32)O[C@H]2C[C@@H](C(=O)O)N(C2)c2nc1nc1c2oc2ccccc21 in the records?
Reply: 2687

Ask: Which value of Ratio THP(cGAMP) IC50/THP(vir) IC50 has been reported for O=C(O)[C@@H]1C[C@H]2CN1c1nc(nc3c1oc1ccccc13)CCOCCCC(=O)N1CCC(CC1)n1c(nc3ccc(F)cc31)O2 in the records?
Reply: >229

====

Test system: IFN induction in dsDNA-stimulated human whole blood
Test: Human whole blood assay (hWB IC50), dsDNA stimulated, IFNα2α production
Format: cell-based
Conditions: Table 1
The label is Met for IC50 below 10 nM and Not met for IC50 equal to or exceeding 10 nM.

Some solved entries appear below for comparison.
>  <MOLECULE>
C[C@H]1CN2CC[C@@H]1n1c(nc3ccccc31)O[C@H]1C[C@@H](C(=O)O)N(C1)c1nc(nc3c1oc1ccccc13)CCCCCC2=O [Example 1.19]

>  <LABEL_CLASS>
Not met

$$$$
>  <MOLECULE>
C[C@H]1CN2CC[C@@H]1n1c(nc3ccccc31)O[C@H]1C[C@@H](C(=O)O)N(C1)c1nc(nc3c1oc1ccccc13)CCOCCCC2=O [Example 1.05]

>  <LABEL_CLASS>
Met

$$$$
>  <MOLECULE>
C[C@H]1CN2CC[C@@H]1n1c(nc3ccccc31)O[C@H]1C[C@@H](C(=O)O)N(C1)c1nc(nc3c1oc1ccccc13)C(F)(F)COCCCC2=O [Example 4.01]

>  <LABEL_CLASS>
Met

$$$$

Ask: In plain terms, does C[C@H]1CN2CC[C@@H]1n1c(nc3cc(F)ccc31)O[C@H]1C[C@@H](C(=O)O)N(C1)c1nc(nc3c1oc1cc(F)ccc13)C(F)(F)CCCCCC2=O [Example 1.15] come in under 10 nM for IC50?
Reply: Met

Ask: In plain terms, does O=C(O)[C@@H]1C[C@H]2CN1c1nc(nc3c1oc1ccccc13)OCCCCOC(=O)N1CCC(CC1)n1c(nc3ccccc31)O2 [Example 11.01] come in under 10 nM for IC50?
Reply: Not met

====

We begin with a simple list: items and their reported pIC50.
Tested on: IFN induction in cGAMP-stimulated THP1 cells
Experiment: cGAMP stimulated counter cell assay in THP1-Dual cells (THP1(cGAMP) IC50)
Assay type: cell-based, human
Conditions: Homo sapiens, THP-1; Table 1; counter assay, 10 μM cGAMP stimulation; read-out: THP(cGAMP) IC50
pIC50: −log10 of the molar value.

In the examples that follow, each entry is paired with its recorded pIC50.
>  <SMI>
O=C(O)[C@@H]1C[C@H]2CN1c1nc(nc3c1oc1ccccc13)CCOCCCC(=O)N1CCC(CC1)n1c(nc3ccc(F)cc31)O2

>  <pIC50>
< 5.00

$$$$
>  <SMI>
C[C@@H]1CN2CC[C@H]1n1c(nc3cc(Cl)ccc31)O[C@H]1C[C@@H](C(=O)O)N(C1)c1nc(nc3c1oc1ccccc13)CCOCCCC2=O

>  <pIC50>
< 5.00

$$$$

Kindly consider the entry below.
Ask: For the record C[C@H]1CN2CC[C@@H]1n1c(nc3ccccc31)O[C@H]1C[C@@H](C(=O)O)N(C1)c1nc(nc3c1oc1cc(Cl)ccc13)CCOCCCC2=O , what value of pIC50 is listed for IFN induction in cGAMP-stimulated THP1 cells?
Reply: < 5.00
